Molecular target: E3 ubiquitin-protein ligase SIAH1 (Homo sapiens)
Experiment: blockers of Siah-1 interaction with plectin peptide – biochemical, fluorescence polarization, rhodamine-plectin, uHTS, primary screen (AID 1817)
Details: Siah-1 / rhodamine-plectin peptide fluorescence polarization
The source made the active and inactive calls.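 Rule for the calls: active = displacement of at least 50% at 20 µM, with a fluorescence ratio check between 0.3 and a set limit; inactive = the rest.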
I would appreciate it if you answered using one of these outcomes: 1 (active), 0 (inactive)

input: GET /call?item= Cc1ccc(-n2cccn2)c([C@@H]2C[C@H]3CN(C)C(=O)[C@]34CCCN24)c1 returns the recorded outcome of this test.
output: 0

input: Note, next up: COC(=O)c1cc(NC(=O)c2ccccc2)c(=O)oc1/C=C/Nc1ccc(Oc2ccccc2)cc1
output: 0

input: Note, next up: O=C(Nc1ccc(Br)cc1)c1ccc(N2C(=O)C3CC=CCC3C2=O)cc1 (stereo not given)
output: 1

input: Note, next up: CCC1=Nc2cc(C(=O)O)ccc2Sc2ccccc21
output: 0

input: Note, next up: O=C(Nc1cc([N+](=O)[O-])ccc1N1CCOCC1)c1cccs1
output: 0

input: Note, next up: Oc1ccc(N=Cc2ccc(OCc3ccccc3)cc2)cc1
output: 0

input: Note, next up: C=C(C)Cn1c(N2CCN(CC)CC2)nc2c1c(=O)[nH]c(=O)n2C
output: 0

input: Note, next up: COc1cc(CC(=O)NCc2ccc3c(c2)OCO3)cc(OC)c1OC
output: 0

input: Note, next up: Cc1ccccc1NC(=O)CN1C(=O)N/C(=C\c2ccccc2OCc2ccc(C(=O)O)cc2)C1=O
output: 1

input: Note, next up: Cc1ccc2c(c1)N(CC(=O)NCCc1ccc(Cl)cc1)C(=O)c1cccnc1O2
output: 0

Origin of values: PubChem BioAssay AID1817
